target: α4β1 integrin (Homo sapiens, UniProt P05556+P13612); construct: Ramos cells fluorescently labeled with calcein; endogenous in cells; host or cells: Ramos cells; assay: Inhibition of adhesion of calcein-labeled Ramos cells to CS1 (fibronectin) peptide-conjugated ovalbumin; assay type: cell-based; settings: Table 1; dose required to give 50% inhibition; Ramos cell adhesion to CS1-ovalbumin, 30 minutes at 37° C
Sequence (P13612 34-1032): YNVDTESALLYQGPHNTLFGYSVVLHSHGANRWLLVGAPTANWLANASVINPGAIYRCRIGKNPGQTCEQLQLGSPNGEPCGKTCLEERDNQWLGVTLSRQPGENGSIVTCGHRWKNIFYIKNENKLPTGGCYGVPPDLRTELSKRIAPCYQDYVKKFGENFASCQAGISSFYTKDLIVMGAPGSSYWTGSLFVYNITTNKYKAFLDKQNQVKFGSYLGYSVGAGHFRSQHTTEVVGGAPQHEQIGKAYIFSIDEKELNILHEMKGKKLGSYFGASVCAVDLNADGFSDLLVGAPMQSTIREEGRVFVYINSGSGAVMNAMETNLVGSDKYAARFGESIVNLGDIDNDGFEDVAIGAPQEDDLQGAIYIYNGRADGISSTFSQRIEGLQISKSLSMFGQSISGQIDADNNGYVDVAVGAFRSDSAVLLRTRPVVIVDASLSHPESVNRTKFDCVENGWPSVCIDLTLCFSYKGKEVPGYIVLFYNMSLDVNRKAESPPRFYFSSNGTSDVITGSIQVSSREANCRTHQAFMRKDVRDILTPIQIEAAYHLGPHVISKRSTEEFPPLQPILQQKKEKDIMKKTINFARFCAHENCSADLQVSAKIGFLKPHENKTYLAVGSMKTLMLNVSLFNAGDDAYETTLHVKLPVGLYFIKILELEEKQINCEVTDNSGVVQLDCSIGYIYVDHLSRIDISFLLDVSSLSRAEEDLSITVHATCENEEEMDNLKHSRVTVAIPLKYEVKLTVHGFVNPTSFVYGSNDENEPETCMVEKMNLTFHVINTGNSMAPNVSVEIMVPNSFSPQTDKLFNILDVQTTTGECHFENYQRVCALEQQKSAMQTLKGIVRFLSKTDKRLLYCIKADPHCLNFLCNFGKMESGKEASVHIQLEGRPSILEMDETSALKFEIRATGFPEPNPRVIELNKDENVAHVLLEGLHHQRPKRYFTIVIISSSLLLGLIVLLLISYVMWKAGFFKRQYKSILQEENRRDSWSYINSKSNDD
Sequence (P05556 21-798): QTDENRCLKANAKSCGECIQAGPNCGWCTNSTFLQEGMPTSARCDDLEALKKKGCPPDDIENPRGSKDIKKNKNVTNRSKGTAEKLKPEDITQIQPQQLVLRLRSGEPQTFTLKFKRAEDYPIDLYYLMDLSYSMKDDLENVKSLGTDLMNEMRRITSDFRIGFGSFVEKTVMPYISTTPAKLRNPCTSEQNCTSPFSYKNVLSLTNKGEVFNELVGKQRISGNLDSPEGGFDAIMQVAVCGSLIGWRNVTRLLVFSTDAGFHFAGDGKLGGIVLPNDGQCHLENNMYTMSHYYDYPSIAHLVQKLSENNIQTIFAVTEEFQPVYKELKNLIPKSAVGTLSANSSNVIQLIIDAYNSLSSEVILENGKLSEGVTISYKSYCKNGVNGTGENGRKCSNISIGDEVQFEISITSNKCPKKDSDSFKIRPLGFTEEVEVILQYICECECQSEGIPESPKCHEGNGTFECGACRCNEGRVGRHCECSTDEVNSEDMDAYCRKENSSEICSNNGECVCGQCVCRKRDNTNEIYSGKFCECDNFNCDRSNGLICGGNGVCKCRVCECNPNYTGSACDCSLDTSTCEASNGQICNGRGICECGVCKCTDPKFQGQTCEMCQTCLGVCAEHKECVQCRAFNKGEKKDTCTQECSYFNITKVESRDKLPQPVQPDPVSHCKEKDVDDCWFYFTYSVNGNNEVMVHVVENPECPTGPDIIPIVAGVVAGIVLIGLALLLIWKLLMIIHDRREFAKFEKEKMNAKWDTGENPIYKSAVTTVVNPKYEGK
IC50 overview
// units = µM; emit number, no label

compound: CCCS(=O)(=O)Nc1cccc(SC[C@H](CCSC)NC(=O)N[C@@H](CC(=O)O)c2ccc3c(c2)OCO3)c1
IC50 / µM: 0.5

Task: What value of measured IC50 is listed for COc1ccc(SC[C@H](CCSC)NC(=O)N[C@@H](CC(=O)O)c2ccc3c(c2)OCO3)cc1 ?
Result: 7

Task: What value of measured IC50 is listed for CSCC[C@@H](CSc1ccccc1)N(C)C(=O)N[C@@H](CC(=O)O)c1ccc2c(c1)OCO2 ?
Result: 35

Task: What value of measured IC50 is listed for O=C(O)C[C@H](NC(=O)O[C@H](COCc1ccccc1)CSCc1ccccc1)c1ccc2c(c1)OCO2 ?
Result: 10

Task: What value of measured IC50 is listed for O=C(O)C[C@H](NC(=O)N[C@@H](COCc1ccccc1)CSc1ccccc1)c1ccc2c(c1)OCO2 ?
Result: 0.3

Task: What value of measured IC50 is listed for COC(=O)NCCCC[C@H](NC(=O)N[C@@H](CC(=O)O)c1ccc2c(c1)OCO2)C(=O)NCc1ccc(N)cc1 ?
Result: 0.3

Task: What value of measured IC50 is listed for CSCC[C@@H](CSc1ccccc1)NC(=S)N[C@@H](CC(=O)O)c1ccc2c(c1)OCO2 ?
Result: 3

Task: What value of measured IC50 is listed for CC(C)[C@@H](CSCCc1ccccc1)NC(=O)N[C@@H](CC(=O)O)c1ccc2c(c1)OCO2 ?
Result: 20

Task: What value of measured IC50 is listed for Cc1ccccc1NC(=O)Nc1ccc(CNC(=O)[C@H](CC(C)C)NC(=O)NC(CC(=O)O)c2ccc3c(c2)OCO3)cc1 (some centres unmarked) ?
Result: 0.02

Task: What value of measured IC50 is listed for CSCC[C@@H](CSc1ccc(Cl)cc1)NC(=O)N[C@@H](CC(=O)O)c1ccc2c(c1)OCO2 ?
Result: 3

Task: What value of measured IC50 is listed for CSCC[C@@H](CSc1cccc(N)c1)NC(=O)N[C@@H](CC(=O)O)c1ccc2c(c1)OCO2 ?
Result: 0.3

====

target: α4β1 integrin (Homo sapiens, UniProt P05556+P13612); construct: Ramos cells fluorescently labeled with calcein; endogenous in cells; host or cells: Ramos cells; assay: Inhibition of adhesion of calcein-labeled Ramos cells to CS1 (fibronectin) peptide-conjugated ovalbumin; format: cell-based; details: Ramos, Table 1; compound at a concentration of 100 μM; read-out: % A (percent inhibition of cell adhesion)
measured.parameter: inhibition at 100 µM (%)
// units = %; emit number, no label

compound: C[C@@H](CSc1ccccc1)NC(=O)N[C@@H](CC(=O)O)c1ccc2c(c1)OCO2
inhibition at 100 µM (%): 100

compound: Cc1ccc(S(=O)(=O)NC[C@@H](CSc2ccccc2)NC(=O)N[C@@H](CC(=O)O)c2ccc3c(c2)OCO3)cc1
inhibition at 100 µM (%): 98

compound: Cc1ccccc1NC(=O)Nc1ccc(CNC(=O)[C@H](CCCCNC(=O)OCc2ccccc2)NC(=O)N[C@@H](CC(=O)O)c2ccc3c(c2)OCO3)cc1
inhibition at 100 µM (%): 100

compound: O=C(O)C[C@H](NC(=O)O[C@@H](COCCc1ccccc1)CSc1ccccc1)c1ccc2c(c1)OCO2
inhibition at 100 µM (%): 100

compound: CC(C)[C@@H](CSc1ccccc1)NC(=O)N[C@@H](CC(=O)O)c1ccc2c(c1)OCO2
inhibition at 100 µM (%): 100

compound: CSCC[C@@H](CSc1ccccc1N)NC(=O)N[C@@H](CC(=O)O)c1ccc2c(c1)OCO2
inhibition at 100 µM (%): 100

compound: CC(C)[C@@H](CSCCc1ccccc1)NC(=O)N[C@@H](CC(=O)O)c1ccc2c(c1)OCO2
inhibition at 100 µM (%): 98

compound: O=C(O)C[C@H](NC(=O)N[C@@H](CCCCNC(=O)OCc1ccccc1)C(=O)NCCc1ccc(O)cc1)c1ccc2c(c1)OCO2
inhibition at 100 µM (%): 100

compound: O=C(O)C[C@H](NC(=O)N[C@H](COCc1ccccc1)CSCc1ccccc1)c1ccc2c(c1)OCO2
inhibition at 100 µM (%): 100

compound: C=CCOC[C@@H](CSc1ccccc1)NC(=O)N[C@@H](CC(=O)O)c1ccc2c(c1)OCO2
inhibition at 100 µM (%): 100

Task: What value of measured inhibition at 100 µM is listed for CSCC[C@@H](CSc1ccc(N)cc1)NC(=O)N[C@@H](CC(=O)O)c1ccc2c(c1)OCO2 ?
Result: 100

Task: What value of measured inhibition at 100 µM is listed for CSCC[C@@H](CSc1ccccc1)NC(=O)NCCC(=O)O ?
Result: 96

Task: What value of measured inhibition at 100 µM is listed for O=C(O)C[C@H](NC(=O)N[C@@H](CCCCNC(=O)OCc1ccccc1)C(=O)NCc1cccs1)c1ccc2c(c1)OCO2 [Compound 27] ?
Result: 100

Task: What value of measured inhibition at 100 µM is listed for CCSC[C@@H](CSc1ccccc1)OC(=O)N[C@@H](CC(=O)O)c1ccc2c(c1)OCO2 ?
Result: 100

Task: What value of measured inhibition at 100 µM is listed for COC(=O)NCCCC[C@H](NC(=O)N[C@@H](CC(=O)O)c1ccc2c(c1)OCO2)C(=O)NCc1nc2ccccc2[nH]1 ?
Result: 100

Task: What value of measured inhibition at 100 µM is listed for CSCC[C@@H](CSc1ccc(NS(=O)(=O)Cc2ccccc2)cc1)NC(=O)N[C@@H](CC(=O)O)c1ccc2c(c1)OCO2 ?
Result: 100

Task: What value of measured inhibition at 100 µM is listed for CSCC[C@@H](CSc1ccc(NC(=O)Nc2ccccc2C)cc1)NC(=O)N[C@@H](CC(=O)O)c1ccc2c(c1)OCO2 ?
Result: 100

Task: What value of measured inhibition at 100 µM is listed for CSCC[C@@H](CSc1ccc(Cl)cc1)NC(=O)N[C@@H](CC(=O)O)c1ccc2c(c1)OCO2 ?
Result: 100

Task: What value of measured inhibition at 100 µM is listed for CSCC[C@@H](CSc1ccccc1)NC(=O)N[C@@H](CC(=O)O)c1ccc2c(c1)OCO2 ?
Result: 100

Task: What value of measured inhibition at 100 µM is listed for CSCC[C@@H](CSc1ccccc1)NC(=O)N[C@H](CSC)CC(=O)O ?
Result: 99

# credit: patent US6262084A
